# assay-explanation: reversal of MRP1-mediated doxorubicin resistance, pilot screen, H69AR cells, doxorubicin co-treatment (AID 601)
# condition-details: H69AR cells, CellTiter-Glo, 72 h; compound alone cytotoxicity; at 10 µM
Parameter viability: see the listing below.

Please review the entries below; each comes with its answer.
- compound: "O=C(C1CCN(S(=O)(=O)c2cccnc2)CC1)N1CCN(c2ccc(Cl)cc2)CC1"
  viability: "89.7%"
- compound: "Cc1ccc(/C=N/n2nnnc2N)o1"
  viability: "95.1%"
- compound: "O=C(c1c(F)cccc1F)N(Cc1ccccn1)C1CCCC1"
  viability: "93.6%"
- compound: "Cc1cccc(-n2c(O)c(C=Nc3ccccc3N)c(=O)[nH]c2=O)c1"
  viability: "10.1%"
- compound: "O=C(NC1CCCCC1)N(Cc1ccccc1)Cc1ccco1"
  viability: "100%"
- compound: "O=C(CS(=O)(=O)c1cn(Cc2ccc(Cl)cc2)c2ccccc12)N1CCCC1"
  viability: "79.3%"
- compound: "CCN(CC)CCn1c2ccccc2c2nc(C)sc21"
  viability: "92.6%"
- compound: "CCOc1ccc(-c2noc(-c3ccncc3)n2)cc1OCC"
  viability: "86.7%"

Input CCSC1(SCC)N=C(N)C2(C#N)C(c3ccccc3)NC(C)=C(C)C12C#N (stereo unspecified) . Output viability: 93.3%

Input "Cc1nnc(NS(=O)(=O)c2ccc(N)cc2)s1" . Output viability: 96.2%
